Reported IC50 by item:
Target: myosin light chain kinase (MLCK) (Gallus gallus)
Construct: chicken gizzard MLCK prepared as described; from tissue; host or cells: chicken gizzard
Sequence (P11799 935-1906): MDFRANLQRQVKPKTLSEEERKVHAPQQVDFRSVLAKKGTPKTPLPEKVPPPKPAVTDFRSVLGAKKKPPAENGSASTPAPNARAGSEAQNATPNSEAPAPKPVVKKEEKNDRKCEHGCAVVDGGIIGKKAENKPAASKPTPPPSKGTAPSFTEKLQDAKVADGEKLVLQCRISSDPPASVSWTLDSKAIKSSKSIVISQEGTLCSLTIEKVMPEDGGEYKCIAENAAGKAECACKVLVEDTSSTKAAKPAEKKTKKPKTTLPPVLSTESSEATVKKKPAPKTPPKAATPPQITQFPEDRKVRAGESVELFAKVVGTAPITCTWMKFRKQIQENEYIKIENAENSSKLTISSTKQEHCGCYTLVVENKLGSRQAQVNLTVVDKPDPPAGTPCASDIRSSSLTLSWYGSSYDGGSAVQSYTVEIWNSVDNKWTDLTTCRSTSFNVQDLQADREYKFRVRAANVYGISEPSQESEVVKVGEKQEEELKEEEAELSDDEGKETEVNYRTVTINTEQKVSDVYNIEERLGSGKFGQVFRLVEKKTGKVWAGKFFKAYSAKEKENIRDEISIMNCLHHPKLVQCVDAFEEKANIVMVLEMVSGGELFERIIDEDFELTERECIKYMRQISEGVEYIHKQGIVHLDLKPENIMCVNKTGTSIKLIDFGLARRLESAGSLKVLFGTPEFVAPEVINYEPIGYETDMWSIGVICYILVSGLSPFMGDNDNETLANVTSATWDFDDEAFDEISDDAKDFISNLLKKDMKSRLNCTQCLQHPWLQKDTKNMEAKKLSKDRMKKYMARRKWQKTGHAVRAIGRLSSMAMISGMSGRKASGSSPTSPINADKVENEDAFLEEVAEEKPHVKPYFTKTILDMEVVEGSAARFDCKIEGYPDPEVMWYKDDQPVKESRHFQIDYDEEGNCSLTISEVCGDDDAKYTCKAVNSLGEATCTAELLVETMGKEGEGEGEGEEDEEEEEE
Experiment: Reconstituted enzyme assay, MLCK
Type: biochemical, chicken
Conditions: Table 6; read-out: Inhibition MLCK
Method: [table] […] The rationale for using BV-2 cells in high throughput screening was the paucity of well-characterized human microglial cell lines, and the relevant activation responses and signaling pathways reflect those seen in human and rodent primary microglial cultures. Compounds were tested for their effects on NO accumulation in conditioned media of LPS-stimulated BV-2 cells by measurement of nitrite production by the Griess assay as a read-out for iNOS activity, as described previously. […]

O=C(CCCCCCCCCNc1ccc(-c2ccccc2)nn1)Nc1ccc(-c2ccccc2)nn1 [MW01-038B]    > 100 µM
Cc1cc(=N)n(CCCCCCCCCCC(=O)Nc2ccc(-c3ccccc3)nn2)nc1-c1ccccc1 [MW01-103B]    20 to 50 µM
N=c1ccc(-c2ccccc2)nn1CCCCCCCCCCC(=O)Nc1ccc(-c2ccccc2)nn1 [MW01-125AZ]    > 100 µM
Cc1cc(NC(=O)CCCCCCCCCCn2nc3c(cc2=N)CCc2ccccc2-3)nnc1-c1ccccc1 [MW01-008B]    < 20 µM

Entry N=c1ccc(-c2ccccc2)nn1CCCCCCCC(=O)Nc1ccc(-c2ccccc2)nn1 [MW01-086B] , myosin light chain kinase (MLCK) (Gallus gallus) data, IC50 value: > 100 µM

IC50 on myosin light chain kinase (MLCK) (Gallus gallus) for Cc1ccc(=N)n(CCCCCCCCCCC(=O)Nc2ccc(-c3ccccc3)nn2)n1 [MW01-031Z] is < 20 µM

Note to self: IC50 of N=c1cc2c(nn1CCCCCCCCCCC(=O)Nc1ccc(-c3ccccc3)nn1)-c1ccccc1CC2 [MW01-026Z] with myosin light chain kinase (MLCK) (Gallus gallus) was 20 to 50 µM

Assay myosin light chain kinase (MLCK) (Gallus gallus), sample N=c1cc2c(nn1CCCCCCCC(=O)Nc1ccc(-c3ccccc3)nn1)-c1ccccc1CC2 [MW01-097B] , IC50 read: 20 to 50 µM

I looked up Cc1ccc(NC(=O)CCCCCCCCCCn2nc3c(cc2=N)CCc2ccccc2-3)nn1 [MW01-020B] and its IC50 for myosin light chain kinase (MLCK) (Gallus gallus) was > 100 µM

The compound N=c1cc2c(nn1CCCCCCCCCCC(=O)Nc1cc3c(nn1)-c1ccccc1CC3)-c1ccccc1CC2 [MW01-055V] , when measured on myosin light chain kinase (MLCK) (Gallus gallus), yielded IC50 of < 20 µM
